Experiment: A quantitative high throughput screen for small molecules that induce DNA re-replication in SW480 colon adenocarcinoma cells. Also: nearly all actives have a fitted effect of over 55% in size.
Settings: Hoechst DNA content imaging, 48 h; series mostly up to 46.1 µM
In all, about 340,000 compounds went through this assay and about 6,200 (1.8%) were called active. Another 10% or so got no clear call; they are omitted. This is one part of a sample in which actives are shown more often than they occur.
MEASURED PARAMETER: outcome

Worked examples follow.
CCCCNS(=O)(=O)CCNCc1ccccc1OC ... inactive
Cc1ccccc1N1CCN(C(=O)c2cccnc2)CC1 ... inactive
O=C(c1cccnc1)N(Cc1ccccc1)C(=O)c1cccnc1 ... inactive
O=C(CNS(=O)(=O)c1ccc2c(c1)OCCCO2)N1CCN(c2ccc(F)cc2)CC1 ... inactive
O=C(CN1C(=O)NC(Cc2c[nH]c3ccccc23)C1=O)Nc1ccccc1C(F)(F)F (stereo not given) ... inactive
COc1cccc2c1C(=O)c1c(O)c3c(c(O)c1C2=O)CC(O)(C(C)=NNC(=O)c1ccc(Cl)c(Cl)c1)CC3OC1CC(N)C(O)C(C)O1 (stereo not given) ... inactive
CCOC(=O)c1c(C)c(C(=O)NCCc2ccc(S(N)(=O)=O)cc2)c(C)n1CC ... inactive
Cn1cncc1COC(=O)c1ccc(Cl)cc1 ... inactive
CSc1ncccc1C(=O)NCC(c1ccco1)N1CCCCC1 (stereo not given) ... inactive

What measured outcome goes with `O=C1c2ccccc2C(=O)N1CCCCCCN1C(=O)c2ccccc2C1=O` ?
inactive

====

Experiment: A quantitative high throughput screen for small molecules that induce DNA re-replication in SW480 colon adenocarcinoma cells. Also: nearly all actives have a fitted effect of over 55% in size.
Conditions: Hoechst DNA content imaging, 48 h; series mostly up to 46.1 µM
The whole screen tested about 340,000 compounds, of which about 6,200 (1.8%) were called active. Not shown: some 10% with an inconclusive outcome. Calls come from the whole dose curve; as a rule, active = well fitted activation curve with a large enough effect; inconclusive = small, poorly fitted or top-dose-only effect; inactive = no such curve, though single readings can be large or run the other way. Shown is part of a subset that was picked to be rich in actives.
Outcomes you can answer with include only these: yes = active, no = inactive

Take a look at these entries with their results.
COc1ccccc1C(=O)OCC(=O)Nc1cccc(S(=O)(=O)NC2=NCCCCC2)c1 ... no
COc1ccc(CCNC(=O)COC(=O)Cc2ccccc2F)cc1 ... no
COc1ccccc1C(=O)COC(=O)COc1ccc(C#N)cc1 ... no
COc1ccc(C(=O)COC(=O)c2c(C)noc2C)cc1Cl ... no
CCNC(=O)CSc1nc(-c2ccccc2)cs1 ... no
CC1CCCCC1NC(=O)Cn1cnc2c1c(=O)n(C)c(=O)n2C (centres undefined) ... no
COc1ccc2ccccc2c1/C=N/NC(=O)c1cc(C)[nH]n1 ... no
CC(C)(C)n1cnnc1Sc1ccc([N+](=O)[O-])cn1 ... yes

I'd appreciate the recorded outcome for `CN(CC(=O)NCCc1ccc(S(N)(=O)=O)cc1)CC(=O)Nc1ccc(Cl)cc1` from this test.
no

How about `CCOC(=O)c1ccccc1NS(=O)(=O)c1c(C)nc2sccn2c1=O` ?
no

How about `NN=C(NN=Cc1ccccc1)c1ccccc1` ?
no

How about Cc1nnnn1/C(=C\c1ccccc1)C(=O)OCC(=O)N1CC2(C)CC1CC(C)(C)C2 (centres undefined) ?
yes

How about `CCOC(=O)c1sc(NC(=O)CSc2nc(C)cc(C(F)(F)F)n2)c(C#N)c1C` ?
no

How about `CCOc1cc(NC(=O)c2ccccc2C(=O)O)c(OCC)cc1NC(=O)c1ccccc1F` ?
no

How about `CCN(CC)C(=O)c1sc2nc(-c3ccccc3)ccc2c1N` ?
yes

How about `CN(CC(=O)O)C(=O)c1ccccc1` ?
no

How about `O=C(COc1ccccc1F)NNC(=O)c1cc(Br)ccc1Cl` ?
no

How about `Cc1cccc(C)c1NC(=O)CSc1ccc([N+](=O)[O-])cn1` ?
no

How about `COC(=O)C1CCN(C(=O)COC(=O)c2cc(S(=O)(=O)N3CCOCC3)ccc2C)CC1` ?
no

How about Cc1cn(C2CC(O)C(CO)O2)c(=O)n(CCCc2ccccc2)c1=O (centres undefined) ?
no

How about `CN1CCN(CCCNC(=O)c2ccc(/C=C3\Oc4ccccc4N(Cc4ccc(Cl)cc4)C3=O)cc2)CC1` ?
no

How about COc1ccc(C(=O)N2CC3(C)CC2CC(C)(C)C3)cc1OC (centres undefined) ?
no

How about `O=C(CN1CCN(c2ccccc2O)CC1)NC(=O)NCc1ccccc1` ?
no

How about Cc1cccc(C(=O)NCC(=O)OCC(=O)N2CC3(C)CC2CC(C)(C)C3)c1 (centres undefined) ?
no

How about `Cc1ccc(C(=O)N/N=C/c2cccc3ccccc23)cn1` ?
no

How about `CN(C)S(=O)(=O)c1cc(C(=O)Nc2ccn(C)n2)c(Cl)cc1Cl` ?
no

How about `O=C(CNC(=O)c1cc(S(=O)(=O)N2CCOCC2)ccc1N1CCCC1)Nc1ccc(F)c(F)c1` ?
no
